The reported numbers originate from PubChem BioAssay AID686979.

# measurement-protocol: qHTS for Inhibitors of human tyrosyl-DNA phosphodiesterase 1 (TDP1): qHTS in cells in presence of CPT; note: nearly all actives have a fitted effect of over 55% in size
# condition-notes: chicken DT40 Tdp1-/-;hTDP1 cells + 20 nM CPT, ATP luminescence, 48 h; series mostly up to 46.2 µM
Among all 420,000 compounds or so, about 50,000 (12%) were called active. Not shown: some 26% with an inconclusive outcome. Calls come from the whole dose curve; as a rule, active = well fitted inhibition curve with a large enough effect; inconclusive = small, poorly fitted or top-dose-only effect; inactive = flat fitted curve, though single readings scatter. The sample as a whole holds a higher share of actives than the screen did.
Your reply should match one of these outcome classes. active, inactive

Input line: Outcome logged for CCCN=C1N(C)C[C@@H]2[C@@H]3C(=O)N(Cc4ccccc4)C(=O)[C@@H]3[C@](C)(C(=O)OC)N12 in this assay:
Output line: inactive

Input line: Outcome logged for CCOC(=O)c1cc(NC(=O)c2cccnc2)ccn1 in this assay:
Output line: inactive

Input line: Outcome logged for Cc1cccc(C)c1NC(=O)CNC(=O)c1c(C)nn(-c2ccccc2)c1C in this assay:
Output line: inactive

Input line: Outcome logged for Cc1ccc2c(c1)-c1c(cnn1CC(=O)Nc1ccccc1C#N)CO2 in this assay:
Output line: inactive

Input line: Outcome logged for O=C(C1CC(=O)N(c2ccc(Br)cc2)C1)N1CCCC1 (stereo unspecified) in this assay:
Output line: inactive

Input line: Outcome logged for COc1ccc2oc(-c3cccc(NC(=O)CSc4ccc(Cl)cc4)c3)nc2c1 in this assay:
Output line: active

Input line: Outcome logged for Cc1ccc(-n2c(C)cc(C(=O)CSc3nnc4ccccn34)c2C)cc1 in this assay:
Output line: active

Input line: Outcome logged for O=[N+]([O-])c1ccc2nc(-c3ccccn3)[nH]c2c1 in this assay:
Output line: active

Input line: Outcome logged for COc1ccc(C(C)C)cc1-c1ccc2nncn2c1 in this assay:
Output line: inactive

Input line: Outcome logged for CN1CCn2cnc(C(=O)NCC(=O)OC(C)(C)C)c2C1=O in this assay:
Output line: inactive

Input line: Outcome logged for COc1ccccc1-n1ccnc(SCC(=O)NC2CCCCC2)c1=O in this assay:
Output line: inactive

====

# measurement-protocol: qHTS for Inhibitors of human tyrosyl-DNA phosphodiesterase 1 (TDP1): qHTS in cells in presence of CPT; note: nearly all actives have a fitted effect of over 55% in size
# condition-notes: chicken DT40 Tdp1-/-;hTDP1 cells + 20 nM CPT, ATP luminescence, 48 h; series mostly up to 46.2 µM
Out of some 420,000 compounds screened, about 50,000 (12%) were called active. Not shown: some 26% with an inconclusive outcome. Calls follow the shape of the dose curve; as a rule, active = well fitted inhibition curve with a large enough effect; inconclusive = small, poorly fitted or top-dose-only effect; inactive = flat fitted curve, though single readings scatter. What follows is part of a selection rich in actives, with near analogues and random picks from the rest.
Your reply should match one of these outcome classes. active, inactive

Input line: Outcome logged for COc1ccc(Br)cc1C1CC(=O)Nc2c1c(C)nn2-c1nc(C)cc(C)n1 (stereo unspecified) in this assay:
Output line: active

Input line: Outcome logged for COc1cc(C(=O)Nc2ncccc2C)ccc1OCC(=O)N1CCOCC1 in this assay:
Output line: inactive

Input line: Outcome logged for CC/C(Cc1ccccc1)=N/NC(=O)CCn1nnc2ccccc21 in this assay:
Output line: inactive

Input line: Outcome logged for Cc1cccc(OCC(=O)Nc2ccccc2F)c1 in this assay:
Output line: inactive

Input line: Outcome logged for O=c1ccc2c(-c3ccccc3S(=O)(=O)O)c3ccc(O)c(O)c3oc-2c1O in this assay:
Output line: active

Input line: Outcome logged for Cc1cccc(OCCC(=O)Nc2ccccc2C(N)=O)c1 in this assay:
Output line: active

Input line: Outcome logged for Cc1ccc(Cl)cc1NC(=O)C(C)n1nnc2sc(-c3ccccc3)cc2c1=O (stereo unspecified) in this assay:
Output line: inactive

Input line: Outcome logged for C[C@@H]1CN([C@H](C)CO)C(=O)c2cc(NC(=O)NC3CCCCC3)ccc2O[C@H]1CN(C)S(C)(=O)=O in this assay:
Output line: inactive

Input line: Outcome logged for OC(CNCc1ccc2c(c1)OCO2)COc1ccccc1 (stereo unspecified) in this assay:
Output line: inactive

Input line: Outcome logged for CCc1noc(C)c1C(=O)OCC(=O)c1ccc(NC(=O)CC(C)C)cc1 in this assay:
Output line: active

Input line: Outcome logged for COc1ccc(C2CC(=O)Nc3c2c(=O)nc2c(C)cccn32)cc1OC (stereo unspecified) in this assay:
Output line: inactive

====

# measurement-protocol: qHTS for Inhibitors of human tyrosyl-DNA phosphodiesterase 1 (TDP1): qHTS in cells in presence of CPT; note: nearly all actives have a fitted effect of over 55% in size; note: potency is the fitted concentration of half-maximal effect
# condition-notes: chicken DT40 Tdp1-/-;hTDP1 cells + 20 nM CPT, ATP luminescence, 48 h; series mostly up to 46.2 µM
Out of some 420,000 compounds screened, about 50,000 (12%) were called active. Not shown: some 26% with an inconclusive outcome. The sample holds actives, similar compounds and a random draw of the others, so the mix is not that of the screen.
endpoint-name: Potency

Some compounds with known Potency results, for comparison:
Input line: State the recorded Potency for this entry: CCOC(=O)[C@]12CCCC=C1N(CCC1=CCCCC1)C(=O)[C@H](CC(=O)N1CCOCC1)C2
Output line: inactive

Input line: State the recorded Potency for this entry: CC1CCN(C(=O)COC(=O)c2cc(S(=O)(=O)N3CCOCC3)ccc2Cl)CC1
Output line: inactive

Input line: State the recorded Potency for this entry: C[C@H]1CN([C@@H](C)CO)C(=O)CCCn2cc(nn2)CO[C@@H]1CN(C)C(=O)Nc1ccccc1
Output line: inactive

Input line: State the recorded Potency for this entry: CCOCCCNC(=S)Nc1ccc2nc(N3CCN(CC)CC3)cc(C)c2c1
Output line: inactive

Input line: State the recorded Potency for this entry: Cc1cccc(NC(=O)Cn2c(C(F)(F)F)nc3ccccc32)c1C
Output line: inactive

Input line: State the recorded Potency for this entry: Oc1ccc(/C=N/Nc2ccc(C(F)(F)F)cn2)cc1O
Output line: 2.91 µM (active)

Others:
Input line: State the recorded Potency for this entry: CCC(=O)Nc1nc2ccccc2n1Cc1ccccc1C
Output line: 14.6 µM (active)

====

# measurement-protocol: qHTS for Inhibitors of human tyrosyl-DNA phosphodiesterase 1 (TDP1): qHTS in cells in presence of CPT; note: nearly all actives have a fitted effect of over 55% in size
# condition-notes: chicken DT40 Tdp1-/-;hTDP1 cells + 20 nM CPT, ATP luminescence, 48 h; series mostly up to 46.2 µM
The whole screen tested about 420,000 compounds, of which about 50,000 (12%) were called active. About 26% were inconclusive and are not listed. Calls follow the shape of the dose curve; as a rule, active = well fitted inhibition curve with a large enough effect; inconclusive = small, poorly fitted or top-dose-only effect; inactive = flat fitted curve, though single readings scatter. The full list was thinned out, with actives kept by preference.
Your reply should match one of these outcome classes. active, inactive

Input line: Outcome logged for CCCc1ccc(C(=O)COC(=O)CN2C(=O)NC3(CCCCC3C)C2=O)cc1 (configuration not stated) in this assay:
Output line: inactive

Input line: Outcome logged for O=C(COC(=O)/C=C/c1ccc(OC(F)F)cc1)NC1CCCCC1 in this assay:
Output line: inactive

Input line: Outcome logged for Cc1cc(OCCCN2CCN(Cc3ccccc3)CC2)ccc1[N+](=O)[O-] in this assay:
Output line: active

Input line: Outcome logged for COc1ccc(OC)c(C(C)NC(=S)Nc2ccc(S(=O)(=O)Nc3ncccn3)cc2)c1 (configuration not stated) in this assay:
Output line: inactive

Input line: Outcome logged for COc1ccc(S(=O)(=O)N2CCC(C(=O)N3CCCC3)CC2)cc1C in this assay:
Output line: inactive

Input line: Outcome logged for COc1ccccc1N(CC(=O)NC1CCCC1)C(=O)C1(C)CC(=O)N=C2C=CC(C)=CN21 (configuration not stated) in this assay:
Output line: inactive

Input line: Outcome logged for COc1ccccc1N1CCN(Cc2ccc(OC)c3ccccc23)CC1 in this assay:
Output line: active

Input line: Outcome logged for COc1ccccc1N1CCN(Cc2cc(OC)c3c(c2)OCO3)CC1 in this assay:
Output line: inactive

Input line: Outcome logged for Cc1cc(OCCCCOc2ccc(C#N)cc2)ccc1[N+](=O)[O-] in this assay:
Output line: active

Input line: Outcome logged for CC(=O)c1cccc(NC(=S)N2CCN(S(C)(=O)=O)CC2)c1 in this assay:
Output line: inactive

Input line: Outcome logged for C/C(=N\NC(=O)NC1CCCCC1)c1ccc(OC(F)F)cc1OC(F)F in this assay:
Output line: active

Input line: Outcome logged for CC(=O)c1cccc(NC(=O)Nc2ccc(C)cc2)c1 in this assay:
Output line: inactive

Input line: Outcome logged for Cc1ccc(S(=O)(=O)N2CCC(C(=O)N3CCCCCCC3)CC2)cc1 in this assay:
Output line: active

Input line: Outcome logged for CC(=O)Nc1ccc(NC(=O)[C@@H](NC(=O)c2cccc(C)c2)C(C)C)cc1 in this assay:
Output line: inactive

Input line: Outcome logged for CCCn1nc(C(=O)NNC(=O)CSCC(=O)Nc2cc(C)on2)c2ccccc2c1=O in this assay:
Output line: inactive

Input line: Outcome logged for O=C(NNc1nc(N2CCCC2)nc(N2CCCC2)n1)c1ccccc1 in this assay:
Output line: inactive

Input line: Outcome logged for Cc1ccc(/C=C2\CCn3c2nc2cc(C(=O)O)ccc2c3=O)c(C)c1 in this assay:
Output line: inactive

Input line: Outcome logged for Cn1c(CCc2ccccc2)nnc1SCC(N)=O in this assay:
Output line: inactive

Input line: Outcome logged for COc1ccc(OCCCCN2CCC(C)CC2)cc1 in this assay:
Output line: inactive

Input line: Outcome logged for Cc1ccc(Nc2c(-c3ccc(Cl)cc3)nc3sccn23)c(C)c1 in this assay:
Output line: inactive

Input line: Outcome logged for CCOc1ccc(/C=C/C(=O)N(CC)CC(=O)NCc2cccs2)cc1OC in this assay:
Output line: inactive

Input line: Outcome logged for COc1ccccc1/C=N/N1CCN(Cc2ccccc2Cl)CC1 in this assay:
Output line: inactive
